# Test system: tyrosine hydroxylase (TH) protein
# assay-notes: Induction of tyrosine hydroxylase (TH) in LC, SN and VTA of the mouse brain
# Type: in vivo, Balb/C mouse
# test-parameters: LC section 11, i.p. 20 mg/kg, three days after single injection, relative to mean value of control group
# Experimental: A search is made among the compounds for those which are capable of bringing about an increase in the tyrosine hydroxylase (TH) protein in the locus coeruleus (LC), substantia nigra (SN) and ventral tegmental area (VTA) of the brain of the Balb/C mouse. […] Serial coronal sections 20 microns thick are then taken using a cryomicrotome. […] The amounts of TH present in each sample are measured by immunochemistry, fluorimetric detection and image analysis.
Marks after values point to notes of the source that are not given here.
amount of TH in LC section 11: recorded values

Consider the worked cases shown below.
Problem: Fill in the recorded amount of TH in LC section 11 for this compound, with tyrosine hydroxylase (TH) protein as test system: "CN1CCC=C(C(=O)Nn2ccc3ccccc32)C1"
Solution: 55%

Problem: What about this compound? O=C(Nn1ccc2ccccc21)C1CCCN(CCN2CCN(CCO)CC2)C1 (stereo not shown)
Solution: 89%

Problem: // repeat for "CN1CCC=C(C(=O)Nn2ccc3cc(F)ccc32)C1" and report
Solution: 106%

Problem: Same thing, different compound: "CN1CCN(CCN2CCC=C(C(=O)Nn3ccc4cc(Cl)ccc43)C2)CC1"
Solution: 127%

Further cases:
Problem: Param readout = amount of TH in LC section 11; param system = tyrosine hydroxylase (TH) protein; param query = CN(C)CCN1CCCC(C(=O)Nn2ccc3ccccc32)C1 (stereo not shown) ; response: value
Solution: 145* %

Problem: Same lookup for C=CCN1CCCC(C(=O)Nn2ccc3cc(Cl)ccc32)C1 (stereo not shown) , please.
Solution: 26%

Problem: Then O=C(Nn1ccc2ccccc21)C1CCCN(CCN2CCCCC2)C1 (stereo not shown) ?
Solution: 94%
